- System: A549-ACTB-RAB5A
- protocol: lowest phenotypically active concentration; higher = less potent
- run_parameters: treatment time: 24 h
result_type: lowest phenotypically active concentration

Item: C[C@@H]1COCCN1c1cc(C2(S(C)(=O)=O)CC2)nc(-c2cccc3[nH]ccc23)n1 | System: A549-ACTB-RAB5A | lowest phenotypically active concentration: ≤ 0.3 µM

Simply: NC1(C(=O)N[C@@H](CCO)c2ccc(Cl)cc2)CCN(c2ncnc3[nH]ccc23)CC1 , A549-ACTB-RAB5A, lowest phenotypically active concentration = ≤ 0.3 µM

Observed lowest phenotypically active concentration on A549-ACTB-RAB5A, entry C#Cc1cccc(Nc2ncnc3cc(OCCOC)c(OCCOC)cc23)c1 , equals ≤ 0.3 µM
